Recorded log10 MIC, one value per entry.
test system: S. aureus; experiment: Minimum inhibitory concentrations (MICs) for S. aureus of exemplary compounds (Table 2); type: cell-based; conditions: Staphylococcus aureus, minimum inhibitory concentrations for S. aureus; read-out: MICs
Annotation: log10 of MIC, µg/mL basis.

CC(=O)NC[C@H]1CN(c2ccc(-c3ccc(CNC(=O)/C=C/c4c(C)[nH]c(=O)[nH]c4=O)cc3)c(F)c2)C(=O)O1 : -0.60
CO/N=C(\CNCc1cocn1)c1ccc(-c2ccc(N3C[C@H](CNC(C)=O)OC3=O)cc2F)cc1 : 0.30

In: Fill in the blank: the reported log10 MIC of CC(=O)NC[C@H]1CN(c2ccc(-c3ccc(/C=N/Nc4ccccn4)cc3)c(F)c2)C(=O)O1 is ____.
Out: 0.00

In: Next: CC(=O)NC[C@H]1CN(c2ccc(-c3ccc(Cc4nnn[nH]4)cc3)c(F)c2)C(=O)O1
Out: 0.90

In: Next: CC(=O)NC[C@H]1CN(c2ccc(-c3ccc(CNNC4=NCCN4)cc3)c(F)c2)C(=O)O1
Out: 0.30

In: Next: CC(=O)NC[C@H]1CN(c2ccc(-c3ccc([C@H](CO)NCc4ccnc5ccccc45)cc3)c(F)c2)C(=O)O1
Out: 0.30

In: Next: CC(=O)NC[C@H]1CN(c2ccc(-c3ccc(CNCc4c(C)nn(C)c4C)cc3)c(F)c2)C(=O)O1
Out: 0.90

---

assay: Approximate solubility in solvents by aliquot addition; type: physicochemical; settings: dichloromethane, organic solvent or mixture, thermodynamic from solid, ambient temperature
measure: solubility

In: Fill in the blank: the reported solubility of CC(=O)NC[C@H]1CN(c2ccc(-c3ccc(CNCc4cnn[nH]4)cc3)c(F)c2)C(=O)O1 [Radezolid] is ____.
Out: < 1000 µg/mL

---

Recorded MIC, one value per entry.
system: S. aureus; assay: Minimum inhibitory concentrations (MICs) for S. aureus of exemplary compounds (Table 2); type: cell-based; details: Staphylococcus aureus, minimum inhibitory concentrations for S. aureus; read-out: MICs
# number only, unit µg/mL dropped from output

Field: example entries. Status: answers known.
CC(=O)NC[C@H]1CN(c2ccc(-c3ccc(C(=O)NCc4nccs4)cc3)c(F)c2)C(=O)O1 : 1
CC(=O)NC[C@H]1CN(c2ccc(-c3ccc(Cc4noc(C)n4)cc3)c(F)c2)C(=O)O1 : 1
CC(=O)NC[C@H]1CN(c2ccc(-c3ccc(CNCc4ccc(-c5ccccn5)s4)cc3)c(F)c2)C(=O)O1 : 1

// next entry
In: Fill in the blank: the reported MIC of CC(=O)NC[C@H]1CN(c2ccc(-c3ccc(CN4CCCC(F)(F)C4)cc3)c(F)c2)C(=O)O1 is ____.
Out: 2

---

assay: Approximate solubility in solvents by aliquot addition; type: physicochemical; settings: methanol, organic solvent or mixture, thermodynamic from solid, Table 11: Methanol; material never went into solution
Counter-ions that a name gives are not always drawn.
measure: solubility

In: Fill in the blank: the reported solubility of CC(=O)NC[C@H]1CN(c2ccc(-c3ccc(CNCc4cnn[nH]4)cc3)c(F)c2)C(=O)O1 [Hydrochloride] is ____.
Out: < 2000 µg/mL

---

Recorded MIC, one value per entry.
system: S. aureus; assay: Minimum inhibitory concentrations (MICs) for S. aureus of exemplary compounds (Table 2); format: cell-based; settings: Staphylococcus aureus, minimum inhibitory concentrations for S. aureus; read-out: MICs
# number only, unit µg/mL dropped from output

In: Fill in the blank: the reported MIC of CC(=O)NC[C@H]1CN(c2ccc(-c3ccc(CNCc4cocn4)cc3)c(F)c2)C(=O)O1 is ____.
Out: 2

In: Next: CC(=O)NC[C@H]1CN(c2ccc(-c3ccc(CNCc4ccncc4F)cc3)c(F)c2)C(=O)O1
Out: 2

In: Next: CC(=O)NC[C@H]1CN(c2ccc(-c3ccc(CNCCCn4ccnn4)cc3)c(F)c2)C(=O)O1
Out: 4

In: Next: CC(=O)NC[C@H]1CN(c2ccc(-c3ccc(C(N)c4nn[nH]n4)cc3)c(F)c2)C(=O)O1 (mixture of isomers)
Out: 128

---

system: S. aureus; test: Minimum inhibitory concentrations (MICs) for S. aureus of exemplary compounds (Table 2); format: cell-based; details: Staphylococcus aureus, minimum inhibitory concentrations for S. aureus; read-out: MICs
Consider the cut-off 4 µg/mL. If the recorded MIC is strictly smaller, the label is criterion met; if not, the label is criterion not met.

CC(=O)NC[C@H]1CN(c2ccc(-c3ccc(SCc4ccncc4)cc3)c(F)c2)C(=O)O1 : criterion met
CC(=O)NC[C@H]1CN(c2ccc(-c3ccc(CNCc4[nH]cnc4C)cc3)c(F)c2)C(=O)O1 : criterion not met
CC(=O)NC[C@H]1CN(c2ccc(-c3ccc(CNC(=O)/C=C/c4ccc(=O)n(C)c4)cc3)c(F)c2)C(=O)O1 : criterion not met
CC(=O)NC[C@H]1CN(c2ccc(-c3ccc(C[S+]([O-])c4ccccn4)cc3)c(F)c2)C(=O)O1 (stereo partly drawn) : criterion met
COc1cc(CNCc2ccncc2)ccc1-c1ccc(N2C[C@H](CNC(C)=O)OC2=O)cc1F : criterion not met
CC(=O)NC[C@H]1CN(c2ccc(-c3ccc(CNCc4cccc(C)n4)cc3)c(F)c2)C(=O)O1 : criterion met
CC(=O)NC[C@H]1CN(c2ccc(-c3ccc(C(NC(=O)OCc4ccccc4)c4nn[nH]n4)cc3)c(F)c2)C(=O)O1 (mixture of isomers) : criterion not met
CC(=O)NC[C@H]1CN(c2ccc(-c3ccc(CNCc4ccncc4)cc3)c(F)c2)C(=O)O1 : criterion met

In: Below 4 µg/mL on MIC? Entry CC(=O)NC[C@H]1CN(c2ccc(-c3ccc([C@H](O)CN4CCC4)cc3)c(F)c2)C(=O)O1
Out: criterion not met

In: Next: CC(=O)NC[C@H]1CN(c2ccc(-c3ccc(Cn4cnc5c(NCC(F)(F)F)ncnc54)cc3)c(F)c2)C(=O)O1
Out: criterion met

---

test system: S. aureus; assay: Minimum inhibitory concentrations (MICs) for S. aureus of exemplary compounds (Table 2); format: cell-based; settings: Staphylococcus aureus, minimum inhibitory concentrations for S. aureus; read-out: MICs
measure: MIC (µg/mL)
# number only, unit µg/mL dropped from output

CC(=O)NC[C@H]1CN(c2ccc(-c3ccc(NC(=O)NCCc4ccccn4)cc3)c(F)c2)C(=O)O1 : 2
CC(=O)NC[C@H]1CN(c2ccc(-c3ccc([C@H](O)CN(CCCF)Cc4ccccc4)cc3)c(F)c2)C(=O)O1 : 8
CC(=O)NC[C@H]1CN(c2ccc(-c3ccc(C(=O)NCCc4cnc[nH]4)nc3)c(F)c2)C(=O)O1 : 2

In: Fill in the blank: the reported MIC of CC(=O)NC[C@H]1CN(c2cc(F)c(-c3ccc(Cn4cnnn4)cc3)c(F)c2)C(=O)O1 is ____.
Out: 1

In: Next: CC(=O)NC[C@H]1CN(c2ccc(-c3ccc(CNC(=O)C4CC4)cc3)c(F)c2)C(=O)O1
Out: 16

In: Next: CC(=O)NC[C@H]1CN(c2ccc(-c3ccc(CN(C)Cc4ccnc5ccccc45)cc3)c(F)c2)C(=O)O1
Out: 1

In: Next: O=C(CCl)NC[C@H]1CN(c2ccc(-c3ccc(Cn4cnnn4)cc3)c(F)c2)C(=O)O1
Out: 0.25

---

test: Approximate solubility in solvents by aliquot addition; format: physicochemical; settings: hexafluoroisopropanol (HFIPA), organic solvent or mixture, thermodynamic from solid, Table 11: Hexafluoroisopropanol (HFIPA)
Where a name gives a salt, the structure may show the parent alone.
measure: solubility

In: Fill in the blank: the reported solubility of CC(=O)NC[C@H]1CN(c2ccc(-c3ccc(CNCc4cnn[nH]4)cc3)c(F)c2)C(=O)O1 [Hydrochloride] is ____.
Out: ≥ 225 mg/mL

---

experiment: Approximate solubility in solvents by aliquot addition; assay type: physicochemical; settings: water, thermodynamic from solid, ambient temperature
measure: solubility

In: Fill in the blank: the reported solubility of CC(=O)NC[C@H]1CN(c2ccc(-c3ccc(CNCc4cnn[nH]4)cc3)c(F)c2)C(=O)O1 is ____.
Out: < 1000 µg/mL

---

Recorded MIC, one value per entry.
test system: S. aureus; assay: Minimum inhibitory concentrations (MICs) for S. aureus of exemplary compounds (Table 2); format: cell-based; settings: Staphylococcus aureus, minimum inhibitory concentrations for S. aureus; read-out: MICs
# number only, unit µg/mL dropped from output

Field: example entries. Status: answers known.
CC(=O)NC[C@H]1CN(c2ccc(-c3ccc(CNC(=O)c4cccn4C)cc3)c(F)c2)C(=O)O1 : 1
CC(=O)NC[C@H]1CN(c2ccc(-c3ccc([C@H](CO)NCc4ccncc4)cc3)c(F)c2)C(=O)O1 : 4
CC(=O)NC[C@H]1CN(c2ccc(-c3ccc(Cn4cnc5c(NCCCO)ncnc54)cc3)c(F)c2)C(=O)O1 : 2
CC(=O)NC[C@H]1CN(c2ccc(-c3ccc(CNCc4cccn4S(=O)(=O)c4ccccc4)cc3)c(F)c2)C(=O)O1 : 4
CC(=O)NC[C@H]1CN(c2ccc(-c3ccc(CNCc4sc(C)nc4C)cc3)c(F)c2)C(=O)O1 : 4

In: Give recorded MIC with S. aureus for the following molecule: CC(=O)NC[C@H]1CN(c2ccc(-c3ccc(CNC(=O)/C=C/c4cn(C)c(=O)n(C)c4=O)cc3)c(F)c2)C(=O)O1
Out: 2

In: Next: CC(=O)NC[C@H]1CN(c2ccc(-c3ccc(CNCCN4CCCC4)cc3)c(F)c2)C(=O)O1
Out: 4
